- measurement_target: T1, human TMEM106B (human, UniProt Q9NUM4 2-274)
- T1 construct: Full-length, on transiently transfected HEK293 cells, or natively expressed on HeLa, U251 and A549 cells; also called huTMEM106B; huTMEM
- test_name: FACS HeLa;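 further: flow cytometry of cells incubated with hybridoma supernatant or purified antibody at 10 µg/ml for 1 h on ice, propidium iodide–positive dead cells gated out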
readout_kind: MFI

>>> recorded_measurement("anti-TMEM106B antibody TM-26 (antibody, V domains shown) VH: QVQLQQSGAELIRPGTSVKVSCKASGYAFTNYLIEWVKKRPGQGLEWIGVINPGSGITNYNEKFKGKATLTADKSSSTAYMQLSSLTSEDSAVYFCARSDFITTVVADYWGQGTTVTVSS VL: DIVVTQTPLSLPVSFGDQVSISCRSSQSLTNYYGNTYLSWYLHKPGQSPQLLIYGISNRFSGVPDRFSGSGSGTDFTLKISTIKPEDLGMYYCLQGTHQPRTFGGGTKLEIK")
384
>>> recorded_measurement("anti-TMEM106B antibody TM-9 (antibody, V domains shown) VH: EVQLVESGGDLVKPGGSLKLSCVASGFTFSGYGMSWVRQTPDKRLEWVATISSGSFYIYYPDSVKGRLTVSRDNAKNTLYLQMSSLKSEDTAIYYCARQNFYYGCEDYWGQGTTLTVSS VL: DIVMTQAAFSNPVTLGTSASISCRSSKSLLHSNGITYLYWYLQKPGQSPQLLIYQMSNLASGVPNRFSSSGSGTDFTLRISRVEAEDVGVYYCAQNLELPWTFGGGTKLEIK")
2540
>>> recorded_measurement("anti-TMEM106B antibody TM-29 (antibody, V domains shown) VH: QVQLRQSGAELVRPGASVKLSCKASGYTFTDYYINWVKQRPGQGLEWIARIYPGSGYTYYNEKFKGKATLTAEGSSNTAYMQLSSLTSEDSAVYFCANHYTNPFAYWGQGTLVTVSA VL: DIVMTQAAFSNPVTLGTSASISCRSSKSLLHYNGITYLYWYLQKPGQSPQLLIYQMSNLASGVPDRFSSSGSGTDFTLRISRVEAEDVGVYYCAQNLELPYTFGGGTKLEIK")
1650
